Organism: Homo sapiens
EXPERIMENT DESCRIPTION: Ratio of IC50 for human S1P3 receptor to IC50 for human S1P1 receptor
PARAMETER: Ratio IC50

MOLECULE | ASSAY RESULT
CCCCCCCCOc1ccc(-c2c[nH]c([C@@](C)(N)COP(=O)(O)O)n2)cc1F | 16.5
CCCCCCCCOc1ccc(NC(=O)[C@@](C)(N)COP(=O)(O)O)cc1 | 8.1
CCCCCCCCOc1ccc(NC(=O)[C@@](C)(N)COP(=O)(O)O)c(F)c1 | 10.2

[P] CCCCCCCCOc1ccc(-c2c[nH]c([C@@](C)(N)COP(=O)(O)O)n2)cc1
[Q] CCCCCCCCOc1ccc(NC(=O)[C@@](C)(N)COP(=O)(O)O)cc1F
Q: Which numeric Ratio IC50 is bigger, that of P or that of Q ? Give the label of your selection.
Result: Q
(Q: 42, P: 20.3)

###

TARGET OF ASSAY: Sphingosine 1-phosphate receptor 1 (Homo sapiens, UniProt P21453)
Sequence (P21453 whole entry): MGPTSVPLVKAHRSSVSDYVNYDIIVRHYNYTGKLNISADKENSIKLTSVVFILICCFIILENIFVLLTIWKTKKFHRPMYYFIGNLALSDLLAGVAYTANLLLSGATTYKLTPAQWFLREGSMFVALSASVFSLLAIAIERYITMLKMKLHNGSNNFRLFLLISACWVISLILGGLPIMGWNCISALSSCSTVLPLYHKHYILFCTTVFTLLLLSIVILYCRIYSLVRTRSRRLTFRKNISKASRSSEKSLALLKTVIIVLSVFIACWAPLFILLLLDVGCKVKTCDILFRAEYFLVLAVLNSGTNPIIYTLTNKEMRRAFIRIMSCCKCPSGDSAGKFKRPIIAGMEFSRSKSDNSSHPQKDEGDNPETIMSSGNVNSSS
EXPERIMENT DESCRIPTION: Agonist activity at human S1P1 receptor assessed as stimulation of [35S]GTPgammaS binding
PARAMETER: EC50 (nM)

Here's what some known entries look like.
MOLECULE | EC50 / nM
CCCCCCCCOc1ccc(-c2c[nH]c([C@@](C)(N)COP(=O)(O)O)n2)cc1F | 0.45
CCCCCCCCCCCCC/C=C/[C@@H](O)[C@@H](N)COP(=O)(O)O | 7.9
CCCCCCCCOc1ccc(NC(=O)[C@@](C)(N)COP(=O)(O)O)c(F)c1 | 2.1

[1] CCCCCCCCOc1ccc(NC(=O)[C@@](C)(N)COP(=O)(O)O)cc1
[2] CCCCCCCCOc1ccc(-c2c[nH]c([C@@](C)(N)COP(=O)(O)O)n2)cc1
[3] CCCCCCCCOc1ccc(NC(=O)[C@@](C)(N)COP(=O)(O)O)cc1F
Q: Hi! Can you put these in order of EC50, lowest number first? Field: ranking. Enter the labels in the order requested.
Result: 2, 3, 1

###

TARGET OF ASSAY: Sphingosine 1-phosphate receptor 5 (Homo sapiens)
Sequence (Q9H228 whole entry): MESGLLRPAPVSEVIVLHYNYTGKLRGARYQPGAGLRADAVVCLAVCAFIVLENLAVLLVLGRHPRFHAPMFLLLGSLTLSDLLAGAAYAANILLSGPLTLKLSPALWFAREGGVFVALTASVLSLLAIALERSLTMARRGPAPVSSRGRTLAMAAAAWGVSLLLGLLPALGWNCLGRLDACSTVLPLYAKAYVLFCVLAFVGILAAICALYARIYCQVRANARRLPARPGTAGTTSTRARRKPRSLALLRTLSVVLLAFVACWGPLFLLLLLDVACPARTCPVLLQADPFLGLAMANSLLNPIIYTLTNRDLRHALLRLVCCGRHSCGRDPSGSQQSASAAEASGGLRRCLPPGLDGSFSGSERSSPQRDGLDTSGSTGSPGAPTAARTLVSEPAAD
EXPERIMENT DESCRIPTION: Displacement of [33P]sphingosine-1-phosphate from human S1P5 receptor
PARAMETER: IC50 (nM)

[1] CCCCCCCCOc1ccc(-c2c[nH]c([C@@](C)(N)COP(=O)(O)O)n2)cc1F
[2] CCCCCCCCOc1ccc(NC(=O)[C@@](C)(N)COP(=O)(O)O)c(F)c1
Q: Field: entry with larger IC50 (options 1 / 2 ). Select an item and report its label.
Result: 2

###

Species: Homo sapiens
EXPERIMENT DESCRIPTION: Ratio of EC50 for human S1P3 receptor to EC50 for human S1P1 receptor
PARAMETER: Ratio EC50

Reference set (2 entries):
MOLECULE | Ratio EC50
CCCCCCCCOc1ccc(NC(=O)[C@@](C)(N)COP(=O)(O)O)cc1 | 6.9
CCCCCCCCOc1ccc(-c2c[nH]c([C@@](C)(N)COP(=O)(O)O)n2)cc1 | 26.9

[1] CCCCCCCCOc1ccc(-c2c[nH]c([C@@](C)(N)COP(=O)(O)O)n2)cc1F
[2] CCCCCCCCOc1ccc(NC(=O)[C@@](C)(N)COP(=O)(O)O)c(F)c1
[3] CCCCCCCCOc1ccc(NC(=O)[C@@](C)(N)COP(=O)(O)O)cc1F
Q: Order these by Ratio EC50, descending, and give the full ranking. Field: ranking. Enter the labels in the order requested.
Result: 1, 3, 2
(1: 24, 3: 9.2, 2: 4.7)
